tested.target: Recombinant human TPH1 (MBP tagged) (Homo sapiens, UniProt P17752)
Construct: cloning full length human TPH1 cDNA in to a bacterial pMAL-c5E expression vector; made in house; host or cells: E. coli BL21 (DE3)
Sequence (P17752 1-444): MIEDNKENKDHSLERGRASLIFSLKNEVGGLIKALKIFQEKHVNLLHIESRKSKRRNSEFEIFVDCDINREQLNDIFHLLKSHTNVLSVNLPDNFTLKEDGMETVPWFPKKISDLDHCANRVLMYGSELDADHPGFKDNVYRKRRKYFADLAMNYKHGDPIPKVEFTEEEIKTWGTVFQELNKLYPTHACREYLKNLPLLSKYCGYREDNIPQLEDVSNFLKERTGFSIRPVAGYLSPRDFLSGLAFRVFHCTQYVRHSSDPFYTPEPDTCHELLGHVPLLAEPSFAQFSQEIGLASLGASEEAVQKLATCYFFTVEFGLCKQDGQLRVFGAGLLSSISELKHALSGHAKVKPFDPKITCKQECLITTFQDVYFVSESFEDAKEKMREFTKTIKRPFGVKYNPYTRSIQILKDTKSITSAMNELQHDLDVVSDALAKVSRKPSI
test.method.notes: TPH1 in vitro inhibition assay (kinetic fluorescence)
Type: biochemical
measurement.parameters: read-out: TPH1 Range (TPH1 inhibition IC50)
Experimental: Recombinant human TPH1 (rTPH1 GenBank™ accession no. NP_004179) was expressed by cloning full length human TPH1 cDNA in to a bacterial pMAL-c5E expression vector to produce maltose-binding protein (MBP) TPH1 fusion proteins. […] TPH1 activities were measured in an assay containing 200 mM ammonium sulfate, 7 mM DTT, 50 μg/mL catalase, 25 μM ammonium iron sulfate, 50 mM MES, pH 7.1. […] Fluorescence reads are recorded in kinetic mode for 300 seconds (5 minutes). […]
Kindly supply the reported IC50 values for the records listed here.

Example results:
- compound: "Cc1ccn(-c2ccc(-c3ccc(C)c(CO)c3)cc2[C@@H](Oc2cc(N3CCC4(CC3)CN[C@H](C(=O)O)C4)nc(N)n2)C(F)(F)F)n1 [Example 19m]"
  tested.target: "Recombinant human TPH1 (MBP tagged) (Homo sapiens, UniProt P17752)"
  IC50: "< 50 nM"
- compound: "COc1cc(C)cc(-c2ccc([C@@H](Oc3cc(N4CCC5(CC4)CN[C@H](C(=O)O)C5)nc(N)n3)C(F)(F)F)cc2)c1 [Example 55o]"
  tested.target: "Recombinant human TPH1 (MBP tagged) (Homo sapiens, UniProt P17752)"
  IC50: "50 to 300 nM"

Moving on to the next compound.
Asked: Look at this compound and give its reported IC50. Cc1ccn(-c2ccc(-c3ccc(CO)c(C)c3)cc2[C@@H](Oc2cc(N3CCC4(CC3)CN[C@H](C(=O)O)C4)nc(N)n2)C(F)(F)F)n1 [Example 19l]
Given back: < 50 nM

Hello, the source for this data is patent US11759462B2, in case you need it.
